Values were extracted from ChEMBL document CHEMBL4033663.

- Tested on: A549
- assay text: Antiproliferative activity against human A549 cells after 48 hrs by MTT assay
- Format: functional, cell-based
- measurement parameters: A549, 48 h
Exercise: for every item that follows, state its recorded IC50.

Some molecules with recorded IC50:
1. N#CC1=C(N)Oc2c(c3nc4ccccc4nc3c3ccccc23)C12C(=O)N(Cc1cnnn1-c1cccc(Cl)c1)c1ccccc12 (centres undefined) :: 32.6 µM
2. N#CC1=C(N)Oc2c(N)cc3nc4ccccc4nc3c2C12C(=O)N(Cc1cnnn1-c1c(Cl)cc(Cl)cc1Cl)c1ccccc12 (centres undefined) :: > 50 µM
3. N#CC1=C(N)Oc2c(c3nc4ccccc4nc3c3ccccc23)C12C(=O)N(Cc1cnnn1-c1ccc(N)cc1)c1ccccc12 (centres undefined) :: > 50 µM

INPUT: Recorded IC50 of COc1cc(-n2nncc2CN2C(=O)C3(C(C#N)=C(N)Oc4c(N)cc5nc6ccccc6nc5c43)c3ccccc32)c(OC)cc1Cl (centres undefined) , please.
OUTPUT: > 50 µM
